Target: TRPC5 (Homo sapiens)
Sequence (Q9UL62 1-973): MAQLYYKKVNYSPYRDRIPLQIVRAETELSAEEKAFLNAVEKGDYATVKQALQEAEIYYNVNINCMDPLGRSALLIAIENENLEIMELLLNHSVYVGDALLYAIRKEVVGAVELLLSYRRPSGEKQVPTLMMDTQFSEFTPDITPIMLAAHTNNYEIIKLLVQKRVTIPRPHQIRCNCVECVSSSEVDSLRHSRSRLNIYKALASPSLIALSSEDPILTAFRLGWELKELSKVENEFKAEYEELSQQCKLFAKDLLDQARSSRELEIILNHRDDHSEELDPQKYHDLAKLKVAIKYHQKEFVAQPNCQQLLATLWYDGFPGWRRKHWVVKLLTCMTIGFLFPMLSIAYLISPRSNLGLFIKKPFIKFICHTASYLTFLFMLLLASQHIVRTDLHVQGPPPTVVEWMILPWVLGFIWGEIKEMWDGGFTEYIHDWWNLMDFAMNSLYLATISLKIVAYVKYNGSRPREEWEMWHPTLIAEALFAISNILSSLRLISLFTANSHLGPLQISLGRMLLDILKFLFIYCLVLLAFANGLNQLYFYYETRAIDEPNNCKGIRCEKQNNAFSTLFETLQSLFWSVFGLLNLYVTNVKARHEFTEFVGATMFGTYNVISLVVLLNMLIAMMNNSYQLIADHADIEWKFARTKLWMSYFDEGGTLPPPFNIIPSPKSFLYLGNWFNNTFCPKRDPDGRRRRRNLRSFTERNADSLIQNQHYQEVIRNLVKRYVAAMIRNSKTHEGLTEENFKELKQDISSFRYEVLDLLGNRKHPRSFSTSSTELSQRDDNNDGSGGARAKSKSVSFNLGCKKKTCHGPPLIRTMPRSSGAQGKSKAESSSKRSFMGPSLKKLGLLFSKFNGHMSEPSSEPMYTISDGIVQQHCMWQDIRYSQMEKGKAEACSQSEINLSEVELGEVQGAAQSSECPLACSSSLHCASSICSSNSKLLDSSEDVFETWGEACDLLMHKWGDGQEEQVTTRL
Test: HEK293 whole-cell patch clamp recording, TRPC5 inhibition assay
Conditions: dose response, whole cell patch clamp, HEK cells expressing TRPC5, Rilu (3 μM)
Hi there, I'd appreciate the recorded IC50 for every entry that follows.
# unit: µM | format: bare number

### Prompt Which value of IC50 has been reported for c1ccc(Cn2c(NCc3ccco3)nc3ccccc32)cc1 in the records?
### Response 14.7

### Prompt Further, for Cc1cc(N2CCCCC2)nc2ccccc12 [ML204, reference compound] ?
### Response 13.6
